List of MIC tested on Staphylococcus aureus, methicillin susceptible.

[
  {
    "molecule": "CC(=O)NC[C@H]1CN(c2ccc(N3CC4CC(=CC#N)CC4C3)c(F)c2)C(=O)O1 (stereo partly shown) [Example 1]",
    "measurementUnit": "µg/mL",
    "MIC": 3.1
  },
  {
    "molecule": "N#CCC1=CC2CN(c3ccc(N4C[C@H](Cn5ccnn5)OC4=O)cc3F)CC2C1 (stereo partly shown) [Example 8]",
    "measurementUnit": "µg/mL",
    "MIC": 6.2
  },
  {
    "molecule": "CON=C1CC2CN(c3ccc(N4C[C@H](Cn5ccnn5)OC4=O)cc3F)CC2C1 (stereo partly shown) [Example 6]",
    "measurementUnit": "µg/mL",
    "MIC": 6.2
  },
  {
    "molecule": "O=C1CC2CN(c3ccc(N4C[C@H](Cn5ccnn5)OC4=O)cc3F)CC2C1 (stereo partly shown) [Example 4]",
    "measurementUnit": "µg/mL",
    "MIC": 3.1
  },
  {
    "molecule": "N#CC1=CC2CN(c3ccc(N4C[C@H](Cn5ccnn5)OC4=O)cc3F)CC2C1 (stereo partly shown) [Example 9]",
    "measurementUnit": "µg/mL",
    "MIC": 3.1
  },
  {
    "molecule": "O=C1O[C@@H](Cn2ccnn2)CN1c1ccc(N2CC3CC(=NO)CC3C2)c(F)c1 (stereo partly shown) [Example 5]",
    "measurementUnit": "µg/mL",
    "MIC": 6.2
  },
  {
    "molecule": "CC(=O)NC[C@H]1CN(c2ccc(N3CC4C=C(CC#N)CC4C3)c(F)c2)C(=O)O1 (stereo partly shown) [Example 2]",
    "measurementUnit": "µg/mL",
    "MIC": 3.1
  },
  {
    "molecule": "CC(=O)NC[C@H]1CN(c2ccc(N3CC4C=C(C#N)CC4C3)c(F)c2)C(=O)O1 (stereo partly shown) [Example 3]",
    "measurementUnit": "µg/mL",
    "MIC": 3.1
  },
  {
    "molecule": "N#CC=C1CC2CN(c3ccc(N4C[C@H](Cn5ccnn5)OC4=O)cc3F)CC2C1 (stereo partly shown) [Example 7]",
    "measurementUnit": "µg/mL",
    "MIC": 1.5
  },
  {
    "molecule": "CC(=O)NC[C@H]1CN(c2ccc(N3CCOCC3)c(F)c2)C(=O)O1 [LZD, linezolid, reference compound]",
    "measurementUnit": "µg/mL",
    "MIC": 3.1
  }
]

----------
Test system: Staphylococcus pyogenes
testSummary: In vitro antibacterial activity test, Agar Dilution MIC
recordedConditions: Staphylococcus aureus, 18 h

[
  {
    "molecule": "O=C1O[C@@H](Cn2ccnn2)CN1c1ccc(N2CC3CC(=NO)CC3C2)c(F)c1 (stereo partly shown)",
    "tgt": "Staphylococcus pyogenes",
    "MIC, µg/mL": 0.7
  },
  {
    "molecule": "N#CC=C1CC2CN(c3ccc(N4C[C@H](Cn5ccnn5)OC4=O)cc3F)CC2C1 (stereo partly shown)",
    "tgt": "Staphylococcus pyogenes",
    "MIC, µg/mL": 0.3
  },
  {
    "molecule": "CC(=O)NC[C@H]1CN(c2ccc(N3CC4C=C(C#N)CC4C3)c(F)c2)C(=O)O1 (stereo partly shown)",
    "tgt": "Staphylococcus pyogenes",
    "MIC, µg/mL": 0.7
  },
  {
    "molecule": "CC(=O)NC[C@H]1CN(c2ccc(N3CC4CC(=CC#N)CC4C3)c(F)c2)C(=O)O1 (stereo partly shown)",
    "tgt": "Staphylococcus pyogenes",
    "MIC, µg/mL": 0.7
  },
  {
    "molecule": "CON=C1CC2CN(c3ccc(N4C[C@H](Cn5ccnn5)OC4=O)cc3F)CC2C1 (stereo partly shown)",
    "tgt": "Staphylococcus pyogenes",
    "MIC, µg/mL": 0.1
  },
  {
    "molecule": "CC(=O)NC[C@H]1CN(c2ccc(N3CCOCC3)c(F)c2)C(=O)O1 [LZD, linezolid, reference compound]",
    "tgt": "Staphylococcus pyogenes",
    "MIC, µg/mL": 0.7
  },
  {
    "molecule": "CC(=O)NC[C@H]1CN(c2ccc(N3CC4C=C(CC#N)CC4C3)c(F)c2)C(=O)O1 (stereo partly shown)",
    "tgt": "Staphylococcus pyogenes",
    "MIC, µg/mL": 0.7
  },
  {
    "molecule": "O=C1CC2CN(c3ccc(N4C[C@H](Cn5ccnn5)OC4=O)cc3F)CC2C1 (stereo partly shown)",
    "tgt": "Staphylococcus pyogenes",
    "MIC, µg/mL": 0.3
  },
  {
    "molecule": "N#CC1=CC2CN(c3ccc(N4C[C@H](Cn5ccnn5)OC4=O)cc3F)CC2C1 (stereo partly shown)",
    "tgt": "Staphylococcus pyogenes",
    "MIC, µg/mL": 0.7
  },
  {
    "molecule": "N#CCC1=CC2CN(c3ccc(N4C[C@H](Cn5ccnn5)OC4=O)cc3F)CC2C1 (stereo partly shown)",
    "tgt": "Staphylococcus pyogenes",
    "MIC, µg/mL": 1.5
  }
]
